Biological target: Phosphatidylinositol 4,5-bisphosphate 3-kinase catalytic subunit gamma isoform (Homo sapiens, UniProt P48736)
Sequence (P48736 whole entry, canonical isoform): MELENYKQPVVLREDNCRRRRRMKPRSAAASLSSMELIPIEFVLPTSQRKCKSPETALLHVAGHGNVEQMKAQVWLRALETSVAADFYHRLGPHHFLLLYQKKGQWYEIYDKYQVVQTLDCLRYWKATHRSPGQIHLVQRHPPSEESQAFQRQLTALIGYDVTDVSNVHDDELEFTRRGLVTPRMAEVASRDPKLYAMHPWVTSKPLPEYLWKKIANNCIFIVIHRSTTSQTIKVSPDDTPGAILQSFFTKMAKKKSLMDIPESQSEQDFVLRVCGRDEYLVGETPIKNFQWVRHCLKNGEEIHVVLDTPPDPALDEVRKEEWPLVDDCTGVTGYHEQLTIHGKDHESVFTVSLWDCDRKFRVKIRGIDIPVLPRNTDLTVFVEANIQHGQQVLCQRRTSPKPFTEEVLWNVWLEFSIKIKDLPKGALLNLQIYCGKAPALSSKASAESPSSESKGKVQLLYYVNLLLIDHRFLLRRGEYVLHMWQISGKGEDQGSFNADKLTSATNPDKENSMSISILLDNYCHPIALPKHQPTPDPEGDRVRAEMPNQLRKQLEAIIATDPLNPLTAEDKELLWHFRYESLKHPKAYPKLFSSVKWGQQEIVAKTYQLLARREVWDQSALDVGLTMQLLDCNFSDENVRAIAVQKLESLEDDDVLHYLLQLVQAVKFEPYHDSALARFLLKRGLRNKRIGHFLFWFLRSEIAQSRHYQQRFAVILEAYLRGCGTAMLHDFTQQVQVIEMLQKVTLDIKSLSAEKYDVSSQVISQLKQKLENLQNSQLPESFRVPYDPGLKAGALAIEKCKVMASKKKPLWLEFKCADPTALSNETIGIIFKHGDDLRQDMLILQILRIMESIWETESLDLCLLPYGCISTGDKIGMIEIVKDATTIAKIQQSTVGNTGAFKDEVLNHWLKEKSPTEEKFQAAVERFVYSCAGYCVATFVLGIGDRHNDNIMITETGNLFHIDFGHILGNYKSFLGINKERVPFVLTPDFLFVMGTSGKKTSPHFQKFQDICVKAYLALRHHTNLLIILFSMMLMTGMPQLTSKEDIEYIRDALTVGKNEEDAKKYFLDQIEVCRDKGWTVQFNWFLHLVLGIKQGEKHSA
Assay: Inhibition of human PI3Kgamma preincubated for 15 mins followed by ATP addition measured after 1 hr by TR-FRET assay
I'd appreciate it if you could supply IC50 values for the items below.
Number only, in nM; omit the unit.

Give recorded IC50. CC(C)n1nc(-c2cc3cccc(O)c3[nH]2)c2c(N)ncnc21
100

Note down IC50 recorded for CC(=O)N1CCC(n2nc(-c3cc4cc(O)cc(Cl)c4[nH]3)c3c(N)ncnc32)CC1
50

Please give measured IC50 of the following entry: Nc1ncnc2c1c(-c1cc3cc(O)cc(Cl)c3[nH]1)nn2C1CCOCC1
25

Find the measured IC50 of COc1cccc2cc(-c3nn(C4CCOCC4)c4ncnc(N)c34)[nH]c12 and report it.
10

Tell us which IC50 value is on record for CC(C)n1nc(-c2cc3cc(O)cc(F)c3[nH]2)c2c(N)ncnc21
100

* * *

Molecular target: mTORC2 (Homo sapiens, UniProt P42345+Q6R327+Q9BPZ7+Q9BVC4)
Sequence (Q6R327 whole entry, other chains not shown): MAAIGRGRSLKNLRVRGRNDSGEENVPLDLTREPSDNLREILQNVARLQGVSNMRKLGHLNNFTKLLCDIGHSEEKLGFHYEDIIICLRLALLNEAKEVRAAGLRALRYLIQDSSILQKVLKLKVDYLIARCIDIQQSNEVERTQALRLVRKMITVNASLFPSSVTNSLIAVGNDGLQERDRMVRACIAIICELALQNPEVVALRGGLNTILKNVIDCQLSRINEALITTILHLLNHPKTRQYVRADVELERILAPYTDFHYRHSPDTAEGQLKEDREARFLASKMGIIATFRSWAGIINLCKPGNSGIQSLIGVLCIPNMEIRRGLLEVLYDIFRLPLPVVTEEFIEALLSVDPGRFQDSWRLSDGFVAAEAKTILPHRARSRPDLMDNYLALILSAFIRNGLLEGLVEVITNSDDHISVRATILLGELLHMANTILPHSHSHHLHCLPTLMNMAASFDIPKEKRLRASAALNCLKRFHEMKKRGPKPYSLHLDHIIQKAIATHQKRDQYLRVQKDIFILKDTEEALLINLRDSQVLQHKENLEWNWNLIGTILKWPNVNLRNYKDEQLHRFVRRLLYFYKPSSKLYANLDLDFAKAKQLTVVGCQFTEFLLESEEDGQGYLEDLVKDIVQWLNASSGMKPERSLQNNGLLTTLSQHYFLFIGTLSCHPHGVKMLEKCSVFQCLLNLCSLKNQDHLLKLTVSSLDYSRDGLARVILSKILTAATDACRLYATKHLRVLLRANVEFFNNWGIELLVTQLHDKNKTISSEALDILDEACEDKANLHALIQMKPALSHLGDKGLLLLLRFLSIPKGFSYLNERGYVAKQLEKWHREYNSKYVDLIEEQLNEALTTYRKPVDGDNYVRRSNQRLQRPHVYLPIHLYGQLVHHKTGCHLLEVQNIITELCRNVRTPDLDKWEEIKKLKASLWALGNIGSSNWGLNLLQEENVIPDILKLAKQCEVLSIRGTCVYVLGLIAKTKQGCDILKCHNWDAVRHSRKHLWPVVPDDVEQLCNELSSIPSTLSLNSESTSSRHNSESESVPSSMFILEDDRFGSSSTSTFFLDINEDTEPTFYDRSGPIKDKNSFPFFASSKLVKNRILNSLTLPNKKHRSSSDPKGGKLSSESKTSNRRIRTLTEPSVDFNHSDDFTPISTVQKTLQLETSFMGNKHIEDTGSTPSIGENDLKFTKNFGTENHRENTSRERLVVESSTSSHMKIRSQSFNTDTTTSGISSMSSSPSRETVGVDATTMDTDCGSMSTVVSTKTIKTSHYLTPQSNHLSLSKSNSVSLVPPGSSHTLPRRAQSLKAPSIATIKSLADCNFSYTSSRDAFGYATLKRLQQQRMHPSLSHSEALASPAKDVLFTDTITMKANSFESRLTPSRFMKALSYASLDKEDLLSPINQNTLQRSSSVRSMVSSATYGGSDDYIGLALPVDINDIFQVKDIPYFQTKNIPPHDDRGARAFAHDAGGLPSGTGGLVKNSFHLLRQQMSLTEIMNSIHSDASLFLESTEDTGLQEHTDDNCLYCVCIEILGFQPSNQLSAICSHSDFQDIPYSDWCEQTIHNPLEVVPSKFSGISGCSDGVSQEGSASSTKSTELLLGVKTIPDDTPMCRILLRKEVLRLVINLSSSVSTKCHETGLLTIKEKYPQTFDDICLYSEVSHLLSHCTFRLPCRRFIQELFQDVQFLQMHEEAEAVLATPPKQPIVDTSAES
Sequence (Q9BPZ7 2-522 limits assumed, other chains not shown): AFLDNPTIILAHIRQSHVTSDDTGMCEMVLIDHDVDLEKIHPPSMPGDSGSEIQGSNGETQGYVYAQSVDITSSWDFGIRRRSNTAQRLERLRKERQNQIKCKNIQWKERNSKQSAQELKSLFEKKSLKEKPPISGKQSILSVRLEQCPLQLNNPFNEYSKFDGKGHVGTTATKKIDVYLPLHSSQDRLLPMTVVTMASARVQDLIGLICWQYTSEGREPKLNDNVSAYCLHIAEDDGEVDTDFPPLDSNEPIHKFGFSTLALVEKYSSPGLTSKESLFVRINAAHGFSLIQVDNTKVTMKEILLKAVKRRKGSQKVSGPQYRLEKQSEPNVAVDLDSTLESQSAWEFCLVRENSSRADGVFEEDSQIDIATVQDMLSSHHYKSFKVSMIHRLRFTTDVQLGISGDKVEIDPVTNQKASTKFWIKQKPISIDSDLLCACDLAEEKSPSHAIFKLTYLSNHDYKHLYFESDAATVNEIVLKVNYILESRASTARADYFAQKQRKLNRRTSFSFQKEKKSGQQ
Sequence (Q9BVC4 whole entry, other chains not shown): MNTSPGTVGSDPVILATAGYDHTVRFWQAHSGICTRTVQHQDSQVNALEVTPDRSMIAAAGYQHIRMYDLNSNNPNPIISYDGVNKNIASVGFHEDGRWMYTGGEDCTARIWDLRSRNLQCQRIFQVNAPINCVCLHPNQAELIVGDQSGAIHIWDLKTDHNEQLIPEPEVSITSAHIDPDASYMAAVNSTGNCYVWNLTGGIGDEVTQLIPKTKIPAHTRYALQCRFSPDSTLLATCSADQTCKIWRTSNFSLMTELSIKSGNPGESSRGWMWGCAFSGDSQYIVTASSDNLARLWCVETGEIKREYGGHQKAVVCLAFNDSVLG
Test: Inhibition of mTORC2 in human MDA-MB-468 cells assessed as measuring phosphorylated AKT incubated for 2 to 4 hrs by AlphaLISA assay
Assay type: cell-based
pIC50: −log10 of the molar value.
Kindly state pIC50 for each of the entries shown.

Under mTORC2 (Homo sapiens, UniProt P42345+Q6R327+Q9BPZ7+Q9BVC4): report pIC50 of COc1cccc2cc(-c3nc([C@H]4CC[C@H](C(=O)NCCOCCOCCNC(=O)CCOCCOCCOCCOCCn5cc(CCCCO[C@@H]6CC[C@@H](C[C@@H](C)[C@@H]7CC(=O)[C@H](C)/C=C(\C)[C@@H](O)[C@@H](OC)C(=O)[C@H](C)C[C@H](C)C\C=C/C=C/C=C(\C)[C@@H](OC)C[C@@H]8CC[C@@H](C)[C@@](O)(O8)C(=O)C(=O)N8CCCC[C@H]8C(=O)O7)C[C@H]6OC)nn5)CC4)n4ncnc(N)c34)[nH]c12 .
< 7.50

Give pIC50; test system mTORC2 (Homo sapiens, UniProt P42345+Q6R327+Q9BPZ7+Q9BVC4); compound CO[C@H]1C[C@@H]2CC[C@@H](C)[C@@](O)(O2)C(=O)C(=O)N2CCCC[C@H]2C(=O)O[C@H]([C@H](C)C[C@@H]2CC[C@@H](OCc3cccc(-c4cnc(N5CCN(C(=O)CCc6cn(CCOCCOCCC(=O)NCCCCn7nc(-c8ccc9nc(N)oc9c8)c8c(N)ncnc87)nn6)CC5)nc4)c3)[C@H](OC)C2)CC(=O)[C@H](C)/C=C(\C)[C@@H](O)[C@@H](OC)C(=O)[C@H](C)C[C@H](C)C\C=C/C=C/C=C/1C
< 7.50

Report value: pIC50, system: mTORC2 (Homo sapiens, UniProt P42345+Q6R327+Q9BPZ7+Q9BVC4), compound: CO[C@H]1C[C@@H]2CC[C@@H](C)[C@@](O)(O2)C(=O)C(=O)N2CCCC[C@H]2C(=O)O[C@H]([C@H](C)C[C@@H]2CC[C@@H](OCCCN3CCOC(C)(C)C3)[C@H](OC)C2)C[C@@H](O)[C@H](C)/C=C(\C)[C@@H](O)[C@@H](OC)C(NOCC(=O)NCCOCCOCCOCCOCCOCCOCCC(=O)N2CCC(n3nc(-c4ccc5oc(N)nc5c4)c4c(N)ncnc43)CC2)[C@H](C)C[C@H](C)C\C=C/C=C/C=C/1C (stereo partly drawn)
6.00

* * *

Biological target: mTORC2 (Homo sapiens, UniProt P42345+Q6R327+Q9BPZ7+Q9BVC4)
Assay: Inhibition of mTORC2 in human MDA-MB-468 cells assessed as measuring phosphorylated AKT incubated for 2 to 4 hrs by AlphaLISA assay
Assay type: cell-based
MEASURE NAME: IC50

Identify the reported IC50 for the following entry. COc1cccc2cc(-c3nc([C@H]4CC[C@H](C(=O)NCCOCCOCCNC(=O)CCOCCOCCOCCOCCn5cc(CCCCO[C@@H]6CC[C@@H](C[C@@H](C)[C@@H]7C[C@@H](OC)[C@H](C)/C=C(\C)[C@@H](O)[C@@H](OC)C(=O)[C@H](C)C[C@H](C)C\C=C/C=C/C=C(\C)[C@@H](OC)C[C@@H]8CC[C@@H](C)[C@@](O)(O8)C(=O)C(=O)N8CCCC[C@H]8C(=O)O7)C[C@H]6OC)nn5)CC4)n4ncnc(N)c34)[nH]c12
> 0.0316 µM

Please supply the value of reported IC50 for the item CO[C@H]1C[C@@H]2CC[C@@H](C)[C@@](O)(O2)C(=O)C(=O)N2CCCC[C@H]2C(=O)O[C@H]([C@H](C)C[C@@H]2CC[C@@H](O)[C@H](OC)C2)C[C@@H](O)[C@H](C)/C=C(\C)[C@@H](O)[C@@H](OC)/C(=N\OCc2cn(-c3cnc(N4CCN(c5ncc(C(=O)NCCOCCC(=O)NCCCCn6nc(-c7ccc8oc(N)nc8c7)c7c(N)ncnc76)cn5)CC4)nc3)nn2)[C@H](C)C[C@H](C)C\C=C/C=C/C=C/1C
> 0.0316 µM

Determine from records and report IC50 for CO[C@H]1C[C@@H]2CC[C@@H](C)[C@@](O)(O2)C(=O)C(=O)N2CCCC[C@H]2C(=O)O[C@H]([C@H](C)C[C@@H]2CC[C@@H](OCCCCc3cn(CCOCCOCCOCCOCCOCCOCCC(=O)NCCCCn4nc(-c5cccc(C(=O)NC6=NCCS6)c5)c5c(N)ncnc54)nn3)[C@H](OC)C2)CC(=O)[C@H](C)/C=C(\C)[C@@H](O)[C@@H](OC)C(=O)[C@H](C)C[C@H](C)C\C=C/C=C/C=C/1C
> 0.0316 µM

* * *

Assignment: determine reported IC50 for the given molecules.
Target: mTORC1 (Homo sapiens, UniProt P42345+Q8N122+Q9BVC4)
Experiment: Inhibition of mTORC1 (unknown origin)
Assay type: protein-complex assay

# return recorded IC50 for entry CC(C)n1nc(-c2cc3cccc(O)c3[nH]2)c2c(N)ncnc21
< 5 nM

Please give measured IC50 of the following entry: CC(=O)N1CCC(n2nc(-c3cc4c(Cl)ccc(O)c4[nH]3)c3c(N)ncnc32)CC1
< 5 nM

Provide measured IC50 value, entry: CC(C)n1nc(-c2cc3cc(O)cc(F)c3[nH]2)c2c(N)ncnc21
< 5 nM

Item CO[C@@H]1C[C@H](C[C@@H](C)[C@@H]2CC(=O)[C@H](C)/C=C(\C)[C@@H](O)[C@@H](OC)C(=O)[C@H](C)C[C@H](C)/C=C/C=C/C=C(\C)[C@@H](OCCOCCOCCO)C[C@@H]3CC[C@@H](C)[C@@](O)(O3)C(=O)C(=O)N3CCCC[C@H]3C(=O)O2)CC[C@H]1O : provide IC50
< 0.1 nM

Supply measured IC50 of CC(=O)N1CCC(n2nc(-c3cc4cc(O)cc(Cl)c4[nH]3)c3c(N)ncnc32)CC1 in your reply.
< 5 nM

Consider the molecule Nc1ncnc2c1c(-c1cc3cc(O)cc(Cl)c3[nH]1)nn2C1CCOCC1 and give its recorded IC50.
< 5 nM

Tell me its IC50 given CO[C@@H]1C[C@H](C[C@@H](C)[C@@H]2CC(=O)[C@H](C)/C=C(\C)[C@@H](O)[C@@H](OC)C(=O)[C@H](C)C[C@H](C)/C=C/C=C/C=C(\C)[C@@H](OCCSCCSCCO)C[C@@H]3CC[C@@H](C)[C@@](O)(O3)C(=O)C(=O)N3CCCC[C@H]3C(=O)O2)CC[C@H]1O as the entry.
< 0.1 nM

For the molecule CO[C@@H]1C[C@H](C[C@@H](C)[C@@H]2CC(=O)[C@H](C)/C=C(\C)[C@@H](O)[C@@H](OC)C(=O)[C@H](C)C[C@H](C)/C=C/C=C/C=C(\C)[C@@H](OCCOCCO)C[C@@H]3CC[C@@H](C)[C@@](O)(O3)C(=O)C(=O)N3CCCC[C@H]3C(=O)O2)CC[C@H]1O , report IC50.
< 0.1 nM

Give the reported IC50 for this molecule. Nc1ncnc2c1c(-c1cc3cccc(O)c3[nH]1)nn2C1CCOCC1
< 5 nM

Supply recorded IC50 for COc1cccc2cc(-c3nn(C4CCOCC4)c4ncnc(N)c34)[nH]c12 here.
< 5 nM

Output IC50 of CO[C@@H]1C[C@H](C[C@@H](C)[C@@H]2CC(=O)[C@H](C)/C=C(\C)[C@@H](O)[C@@H](OC)C(=O)[C@H](C)C[C@H](C)/C=C/C=C/C=C(\C)[C@@H](OCCOCCOCCOCCOCCOCCOCCOCCO)C[C@@H]3CC[C@@H](C)[C@@](O)(O3)C(=O)C(=O)N3CCCC[C@H]3C(=O)O2)CC[C@H]1O
< 0.1 nM

Provide measured IC50 value, entry: Nc1ncc(-c2nc(N3CCOCC3)c3c(n2)N2CCOC[C@H]2C3)cn1
65 nM

State its IC50: CO[C@@H]1C[C@H](C[C@@H](C)[C@@H]2CC(=O)[C@H](C)/C=C(\C)[C@@H](O)[C@@H](OC)C(=O)[C@H](C)C[C@H](C)/C=C/C=C/C=C(\C)[C@@H](OCC3COCCOCCOCCO3)C[C@@H]3CC[C@@H](C)[C@@](O)(O3)C(=O)C(=O)N3CCCC[C@H]3C(=O)O2)CC[C@H]1O (some centres undefined)
< 0.1 nM

Note IC50 for the molecule shown: Nc1ncnc2c1c(-c1cc3cc(O)ccc3[nH]1)nn2C1CCOCC1
< 5 nM
